Origin of values: patent US5236918A

target: PDE III (Homo sapiens)
Construct: PDE III isolated from human platelets; from tissue; host or cells: human platelets
measurement description: inhibition of PDE III isolated from human platelets
Assay type: biochemical
study conditions: human platelets, cAMP 0.5 μmol/l, 37° C., 20 minutes; read-out: -log[IC50] PDE III (converted)
Quick reference: IC50 of the listed items.
property label: IC50 (µM)

> print(dat)
                  structure.as.smiles  value
1  COc1ccc(-c2ccc(NC#N)nn2)cc1OCC(C)C   6.03
2   COc1ccc(-c2ccc(NC#N)nn2)cc1OC(C)C   5.25
3   COc1cc(-c2ccc(NC#N)nn2)ccc1OC(C)C   6.31
4       COc1ccc(-c2ccc(NC#N)nn2)cc1OC   10.7
5      CCOc1ccc(-c2ccc(NC#N)nn2)cc1OC   8.91
6   COc1ccc(-c2ccc(NC#N)nn2)cc1OC(F)F   12.3
7      CCOc1cc(-c2ccc(NC#N)nn2)ccc1OC   10.5

* * *

Test system: tracheal ring chain of the guinea-pig
measurement description: bronchospasmolytic action on the tracheal ring chain of the guinea-pig in vitro (relaxation of stable tonic spontaneous contraction)
Format: cell-based
study conditions: Cavia porcellus; EC50 in mol/l; 50% of the maximum relaxation achievable with (-)isoprenaline 10^-6 mol/l; spontaneous contraction, 37° C.
Description: The bronchospasmolytic action of the compounds on the tracheal ring chain of the guinea-pig was tested in vitro as follows: Four parallel tracheal ring chains, each consisting of 6 individual rings, of the guinea-pig (female and male, 430-600 g), in an organ bath [5 ml, Krebs-Henseleit solution with addition of phentolamine (10^-5 mol/l), 37° C., pretension of the organs 2 g, gassing with carbogen] develop a stable, tonic spontaneous contraction after about 20 to 30 minutes. […]
Quick reference: EC50 of the listed items.
property label: EC50 (nM)

> print(dat)
                         structure.as.smiles                                 target  value
 1     CC(C)Oc1cc(-c2ccc(NC#N)nn2)ccc1OC(F)F  tracheal ring chain of the guinea-pig    661
 2  N#CNc1ccc(-c2ccc(OCC3CC3)c(OC(F)F)c2)nn1  tracheal ring chain of the guinea-pig   1000
 3         COc1ccc(-c2ccc(NC#N)nn2)cc1OC(C)C  tracheal ring chain of the guinea-pig    417
 4         COc1ccc(-c2ccc(NC#N)nn2)cc1OC(F)F  tracheal ring chain of the guinea-pig   2340
 5    CC(C)COc1cc(-c2ccc(NC#N)nn2)ccc1OC(F)F  tracheal ring chain of the guinea-pig   1410
 6        CCOc1cc(-c2ccc(NC#N)nn2)ccc1OC(F)F  tracheal ring chain of the guinea-pig   2450
 7  N#CNc1ccc(-c2ccc(OC(F)F)c(OC3CCCC3)c2)nn1  tracheal ring chain of the guinea-pig    759
 8        CCOc1ccc(-c2ccc(NC#N)nn2)cc1OC(F)F  tracheal ring chain of the guinea-pig   2040
 9         COc1cc(-c2ccc(NC#N)nn2)ccc1OC(F)F  tracheal ring chain of the guinea-pig   1860
10             COc1ccc(-c2ccc(NC#N)nn2)cc1OC  tracheal ring chain of the guinea-pig   7080
11       COc1ccc(-c2ccc(NC#N)nn2)cc1OC1CCCC1  tracheal ring chain of the guinea-pig    562
12           CCCOc1ccc(-c2ccc(NC#N)nn2)cc1OC  tracheal ring chain of the guinea-pig   5620
13        COc1cc(-c2ccc(NC#N)nn2)ccc1OCC(C)C  tracheal ring chain of the guinea-pig   3550
14            CCOc1cc(-c2ccc(NC#N)nn2)ccc1OC  tracheal ring chain of the guinea-pig   3020
15       CCOc1ccc(-c2ccc(NC#N)nn2)cc1OCC(C)C  tracheal ring chain of the guinea-pig    537
16  N#CNc1ccc(-c2ccc(OC(F)F)c(OCC3CC3)c2)nn1  tracheal ring chain of the guinea-pig    562

* * *

target: PDE III (Homo sapiens, UniProt Q14432)
Construct: PDE III isolated from human platelets; from tissue; host or cells: human platelets
Sequence (Q14432 whole entry): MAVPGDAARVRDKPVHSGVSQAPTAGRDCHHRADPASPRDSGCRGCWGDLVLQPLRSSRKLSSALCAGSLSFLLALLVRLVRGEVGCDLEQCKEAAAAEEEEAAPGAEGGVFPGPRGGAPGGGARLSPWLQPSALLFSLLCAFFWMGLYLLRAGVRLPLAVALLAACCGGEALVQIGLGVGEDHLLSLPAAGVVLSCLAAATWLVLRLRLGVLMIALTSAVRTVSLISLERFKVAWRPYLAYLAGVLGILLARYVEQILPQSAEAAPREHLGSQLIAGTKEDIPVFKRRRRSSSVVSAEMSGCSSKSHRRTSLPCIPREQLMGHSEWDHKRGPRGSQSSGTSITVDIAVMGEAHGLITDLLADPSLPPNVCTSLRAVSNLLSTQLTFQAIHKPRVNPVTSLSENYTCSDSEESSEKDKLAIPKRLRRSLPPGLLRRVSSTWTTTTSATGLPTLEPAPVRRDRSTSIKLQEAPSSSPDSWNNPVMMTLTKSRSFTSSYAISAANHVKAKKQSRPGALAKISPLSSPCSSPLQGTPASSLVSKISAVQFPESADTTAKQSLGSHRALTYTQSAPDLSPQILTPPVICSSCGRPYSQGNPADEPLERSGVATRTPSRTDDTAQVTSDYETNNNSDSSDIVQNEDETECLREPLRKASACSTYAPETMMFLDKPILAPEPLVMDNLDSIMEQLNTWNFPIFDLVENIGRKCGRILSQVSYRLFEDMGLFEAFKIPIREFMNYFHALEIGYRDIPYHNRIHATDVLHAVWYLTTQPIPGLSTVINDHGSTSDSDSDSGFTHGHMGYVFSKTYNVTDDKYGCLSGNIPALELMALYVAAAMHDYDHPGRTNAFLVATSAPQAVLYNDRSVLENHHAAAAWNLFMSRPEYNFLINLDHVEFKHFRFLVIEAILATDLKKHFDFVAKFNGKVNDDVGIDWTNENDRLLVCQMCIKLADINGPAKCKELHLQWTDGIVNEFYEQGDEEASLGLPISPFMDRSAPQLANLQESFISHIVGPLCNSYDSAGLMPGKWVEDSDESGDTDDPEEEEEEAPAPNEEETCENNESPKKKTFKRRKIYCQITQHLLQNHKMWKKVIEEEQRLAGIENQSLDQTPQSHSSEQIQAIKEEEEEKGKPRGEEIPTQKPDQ
measurement description: inhibition of PDE III isolated from human platelets
Assay type: biochemical
study conditions: PDE III; quotient of IC50 values, theophylline = 1
Description: The inhibition of phosphodiesterases of classes III (PDE III=high-affinity cAMP-PDE which can be inhibited by cGMP) and IV (PDE IV=high-affinity cAMP-PDE which cannot be inhibited by cGMP, Rolipram-sensitive) is regarded as being particularly conclusive for a bronchospasmolytic and/or antiinflammatory action which may be expected [H. Hidaka et al., Adv. Cycl. Nucl. Res. 13, 145 (1984); Tips 5, 237 (1984); R. Weishaar et al., J. Med. Chem. 28, 537 (1985); S. A. Harrison et al., Molec. Pharmac. […]
property label: [IC50]theophylline / [IC50]substance

> print(dat)
                  structure.as.smiles                        property.label  value
1       COc1ccc(-c2ccc(NC#N)nn2)cc1OC  [IC50]theophylline / [IC50]substance   15.1
2   COc1cc(-c2ccc(NC#N)nn2)ccc1OC(C)C  [IC50]theophylline / [IC50]substance   25.7
3   COc1ccc(-c2ccc(NC#N)nn2)cc1OC(C)C  [IC50]theophylline / [IC50]substance   30.8
4  COc1ccc(-c2ccc(NC#N)nn2)cc1OCC(C)C  [IC50]theophylline / [IC50]substance   26.9
5      CCOc1cc(-c2ccc(NC#N)nn2)ccc1OC  [IC50]theophylline / [IC50]substance   15.5
6      CCOc1ccc(-c2ccc(NC#N)nn2)cc1OC  [IC50]theophylline / [IC50]substance   18.2
7   COc1ccc(-c2ccc(NC#N)nn2)cc1OC(F)F  [IC50]theophylline / [IC50]substance   13.2

* * *

System: tracheal ring chain of the guinea-pig
measurement description: bronchospasmolytic action on the tracheal ring chain of the guinea-pig in vitro (relaxation of stable tonic spontaneous contraction)
Assay type: cell-based
study conditions: Cavia porcellus; EC50 in mol/l; 50% of the maximum relaxation achievable with (-)isoprenaline 10^-6 mol/l; spontaneous contraction, 37° C.
Method: The bronchospasmolytic action of the compounds on the tracheal ring chain of the guinea-pig was tested in vitro as follows: Four parallel tracheal ring chains, each consisting of 6 individual rings, of the guinea-pig (female and male, 430-600 g), in an organ bath [5 ml, Krebs-Henseleit solution with addition of phentolamine (10^-5 mol/l), 37° C., pretension of the organs 2 g, gassing with carbogen] develop a stable, tonic spontaneous contraction after about 20 to 30 minutes. […]
Kindly apply the following: fulfilled if EC50 is less than 900 nM, not fulfilled in every other case.

> print(dat)
                        structure.as.smiles  category.label
1            CCOc1ccc(-c2ccc(NC#N)nn2)cc1OC   not fulfilled
2  N#CNc1ccc(-c2ccc(OC(F)F)c(OCC(F)(F)F)c2)nn1   not fulfilled
3         COc1cc(-c2ccc(NC#N)nn2)ccc1OC(C)C   not fulfilled
4        COc1ccc(-c2ccc(NC#N)nn2)cc1OCC(C)C       fulfilled
